Tested on: MALME-3M melanoma
EXPERIMENT_NOTES: NCI tumour cell line growth inhibition, 48 h
Where a SMILES comes first, the peptide text is derived from it. Bridges are numbered along the chain shown (N, C = ends). [ ]: non-standard residue; d: D form. The star is where a group is joined. ξ: configuration not given here. X26 = O=C(/C=C/C=C/C=C/C=C/C=C/C(=O)*)NC1=C(O)CCC1=O; NMeA = CN[C@@H](C)C(=O)O; ξF = NC(Cc1ccccc1)C(=O)O; ξA = CC(N)C(=O)O
ASSAY_METRIC: TGI

Example entries begin here.
{"COMPOUND": "CCOC(=O)NC(=O)c1cn(C(CC)COC(=O)NCCCCCCNC(=O)OCC(CC)n2cc(C(=O)NC(=O)OCC)c(=O)[nH]c2=O)c(=O)[nH]c1=O (stereo not drawn)", "TGI": "> 100 µM"}
{"COMPOUND": "CN(C)CCNCCN", "TGI": "> 100 µM"}
{"COMPOUND": "CC(=O)N1CCN(c2ccc(OCC3COC(Cn4ccnc4)(c4ccc(Cl)cc4Cl)O3)cc2)CC1 (stereo not drawn)", "TGI": "> 100 µM"}

Please look at the items below and tell me TGI for each one, in order.
1. COc1cc(/C=C\c2cc(OC)c(OC)c(OC)c2)cc(N/C=C\C(=O)c2c[nH]c3ccccc23)c1OC
2. O=C1CC(C(O)(C(F)(F)F)C(F)(F)Cl)CCC1C(O)(C(F)(F)F)C(F)(F)Cl (stereo not drawn)
3. C=C1c2cc3c(cc2CC12Cc1cc4c(cc1C2=O)CCC4)CCC3 (stereo not drawn)
4. CC12CCC3C(CCC4CC(OC(=O)Cc5ccc(N(CCCl)CCCl)cc5)CCC43C)C1CCC(=O)N2 (stereo not drawn)
5. CCC1CN2CCc3cc(OC)c(OC)cc3C2CC1CC1c2cc(OC)c(OC)cc2CCN1C(=O)C1CCCN1 (stereo not drawn)
6. COc1ccc(-c2nccn2-c2ccc(OC)cc2)cc1
7. NNCCc1ccc(NC(=O)CCCc2ccc(C(=O)Nc3ccccc3N)cc2)cc1
8. N#CC1=C(c2ccccc2)NNC(c2ccc(Cl)cc2)CC1=O (stereo not drawn)

Response line:
1. 3.18 µM
2. > 10 µM
3. > 100 µM
4. 32.9 µM
5. 37.3 µM
6. 50.3 µM
7. 50.8 µM
8. > 100 µM

Working through the 3 compounds below one at a time, give TGI for each.
1. CC(C)(C)[Si](C)(C)OC1[C@@H](CNC(=O)NC(=O)CCl)O[C@@H](n2cnc3c(N)ncnc32)[C@H]1O[Si](C)(C)C(C)(C)C (stereo partly drawn)
2. CC(C)(C)OC(=O)NCCC(N)=S
3. CC1NC(=O)[C@H](C)N(C)C(=O)[C@@H]2CCCN2C(=O)[C@@H](NC(=O)C(Cc2ccccc2)NC(=O)/C=C/C=C/C=C/C=C/C=C/C(=O)NC2=C(O)CCC2=O)COC(=O)[C@@H]2CCCN2C1=O (stereo partly drawn) (X26-[ξF]SP[NMeA][ξA]P; ester 2-C)

Response line:
1.96 µM
> 100 µM
> 100 µM

Would you mind listing TGI for each of the following compounds?
1. O=C(/C(=C\c1c(-c2ccccc2)[nH]c2ccccc12)S(=O)(=O)c1ccccc1)c1ccccc1
2. O=C1NCCS(=O)(=O)N[C@@H](CC2=CC=CCC2)C(=O)N2CCCC12 (stereo partly drawn)
3. CCCCNC(=S)N/N=C/c1cccc(C)n1
4. COc1cc2cc(Oc3ccc(NC(=O)c4cc(C(F)(F)F)cc(C(F)(F)F)c4)cc3)c(C)nc2cc1OC

Response line:
1. > 100 µM
2. > 100 µM
3. > 100 µM
4. > 50 µM
